# SYSTEM: T1, human glycophorin A on human red blood cells or red blood cell membranes (human, UniProt P02724 20-150)
# T1 construct: whole, on cells; also called hRBC; human RBC membranes
# T1 sequence (looked up): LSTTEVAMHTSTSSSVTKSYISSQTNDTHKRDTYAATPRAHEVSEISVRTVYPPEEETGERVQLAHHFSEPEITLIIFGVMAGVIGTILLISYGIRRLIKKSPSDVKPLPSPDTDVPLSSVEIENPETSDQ
# ASSAY TEXT: Fab on intact human RBC, unbound Fab by ELISA; 60 min after 200-fold dilution
QUANTITY NAME: percentage of input antibody bound

- TPP-7797, affinity matured 6C12 Fab (Fab, V domains shown, Tested as Fab) VH: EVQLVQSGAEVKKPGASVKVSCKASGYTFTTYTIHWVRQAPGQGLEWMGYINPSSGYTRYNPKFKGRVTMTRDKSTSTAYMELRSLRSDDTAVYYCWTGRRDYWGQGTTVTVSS VL: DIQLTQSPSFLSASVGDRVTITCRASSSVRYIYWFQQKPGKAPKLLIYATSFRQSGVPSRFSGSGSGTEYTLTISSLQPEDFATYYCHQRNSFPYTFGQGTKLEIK: 94%
- TPP-7790, affinity matured 6C12 Fab (Fab, V domains shown, Tested as Fab with a 6xHIS tag) VH: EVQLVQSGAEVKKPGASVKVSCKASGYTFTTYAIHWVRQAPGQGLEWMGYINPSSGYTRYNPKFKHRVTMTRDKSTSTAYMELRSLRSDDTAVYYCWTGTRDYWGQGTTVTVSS VL: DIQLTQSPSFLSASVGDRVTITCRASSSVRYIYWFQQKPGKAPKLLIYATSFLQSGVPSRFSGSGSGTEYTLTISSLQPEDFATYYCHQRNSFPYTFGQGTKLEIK: 87%
- TPP-7795, affinity matured 6C12 Fab (Fab, V domains shown, Tested as Fab) VH: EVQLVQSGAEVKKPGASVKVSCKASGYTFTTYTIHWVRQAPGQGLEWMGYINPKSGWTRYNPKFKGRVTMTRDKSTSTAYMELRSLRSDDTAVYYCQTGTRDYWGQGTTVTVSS VL: DIQLTQSPSFLSASVGDRVTITCRASSSVSYIYWFQQKPGKAPKLLIYATSFLQSGVPSRFSGSGSGTEYTLTISSLQPEDFATYYCHQRNSFPYTFGQGTKLEIK: 63%
